Provenance of the data: patent US20200054058A1

- Tested on: panelists
- Test: Sensory tasting of mock beverages with Reb-J, Reb-N, Reb-O, Reb-M with and without CC-00800 against sucrose references (Example 6)
- Type: in vivo, human
- Measurement setup: 10 ppm hesperitin dihydrochalcone added to the steviol glycoside beverage; all panelists
Assay metric: enhancement of overall sweetness by hesperitin dihydrochalcone

C=C1C[C@@]23CC[C@H]4[C@@](C)(CCC[C@@]4(C)C(=O)O[C@@H]4O[C@H](CO)[C@@H](O)[C@H](O[C@@H]5O[C@H](CO)[C@@H](O)[C@H](O)[C@H]5O)[C@H]4O[C@@H]4O[C@@H](C)[C@H](O)[C@@H](O)[C@H]4O)[C@@H]2CC[C@]1(O[C@@H]1O[C@H](CO)[C@@H](O)[C@H](O[C@@H]2O[C@H](CO)[C@@H](O)[C@H](O)[C@H]2O)[C@H]1O[C@@H]1O[C@H](CO)[C@@H](O)[C@H](O)[C@H]1O)C3 [Reb-N, rebaudioside N] | about 1 Brix
C=C1C[C@@]23CC[C@H]4[C@@](C)(CCC[C@@]4(C)C(=O)O[C@@H]4O[C@H](CO)[C@@H](O)[C@H](O)[C@H]4O[C@@H]4O[C@@H](C)[C@H](O)[C@@H](O)[C@H]4O)[C@@H]2CC[C@]1(O[C@@H]1O[C@H](CO)[C@@H](O)[C@H](O[C@@H]2O[C@H](CO)[C@@H](O)[C@H](O)[C@H]2O)[C@H]1O[C@@H]1O[C@H](CO)[C@@H](O)[C@H](O)[C@H]1O)C3 [Reb-J, rebaudioside J] | about 1 Brix
C=C1C[C@@]23CC[C@H]4[C@@](C)(CCC[C@@]4(C)C(=O)O[C@@H]4O[C@H](CO)[C@@H](O)[C@H](O[C@@H]5O[C@H](CO)[C@@H](O)[C@H](O)[C@H]5O)[C@H]4O[C@@H]4O[C@@H](C)[C@H](O)[C@@H](O[C@@H]5O[C@H](CO)[C@@H](O)[C@H](O)[C@H]5O)[C@H]4O)[C@@H]2CC[C@]1(O[C@@H]1O[C@H](CO)[C@@H](O)[C@H](O[C@@H]2O[C@H](CO)[C@@H](O)[C@H](O)[C@H]2O)[C@H]1O[C@@H]1O[C@H](CO)[C@@H](O)[C@H](O)[C@H]1O)C3 [Reb-O, rebaudioside O] | about 1 Brix
